assayed-target: Neutrophil collagenase (Homo sapiens, UniProt P22894)
Sequence (P22894 whole entry): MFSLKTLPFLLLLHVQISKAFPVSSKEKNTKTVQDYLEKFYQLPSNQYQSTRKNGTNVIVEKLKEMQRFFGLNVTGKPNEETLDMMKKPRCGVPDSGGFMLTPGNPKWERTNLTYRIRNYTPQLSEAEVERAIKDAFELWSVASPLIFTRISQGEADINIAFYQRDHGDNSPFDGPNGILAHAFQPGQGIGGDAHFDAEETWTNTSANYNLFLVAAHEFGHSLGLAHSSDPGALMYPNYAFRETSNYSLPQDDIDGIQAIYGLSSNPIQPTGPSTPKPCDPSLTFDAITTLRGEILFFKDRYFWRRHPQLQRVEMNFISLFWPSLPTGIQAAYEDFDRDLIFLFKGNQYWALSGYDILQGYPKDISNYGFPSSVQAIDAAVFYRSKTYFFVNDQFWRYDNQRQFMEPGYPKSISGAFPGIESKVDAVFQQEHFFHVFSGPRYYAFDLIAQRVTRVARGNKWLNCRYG
measurement-description: Inhibition of MMP8 (unknown origin)-mediated Mca-Pro-Leu-Gly-Leu-Dpa-Ala-Arg-NH2 by fluorimetric assay
We begin with a simple list: items and their reported pKi.
Note on pKi: it is the negative log10 of concentration, concentration in mol/L.

Examples with answers:
- structure-smiles: "O=C(CNS(=O)(=O)CCc1ccccc1)NO"
  value: 7.12
- structure-smiles: "O=C(CNS(=O)(=O)CCc1ccc2c(c1)OCO2)NO"
  value: 7.70

Entry O=C(NO)[C@H]1CCCN1S(=O)(=O)CCc1ccc(Oc2ccccc2)cc1 — recorded pKi = 7.01

Note to self: pKi recorded for COc1ccc(CCS(=O)(=O)NCC(=O)NO)cc1 was 7.85

What the record says about O=C(O)[C@@H]1CCCN1S(=O)(=O)c1ccc(Cl)s1 : pKi is 6.56

The reported pKi of the compound O=C(O)CNS(=O)(=O)CCc1ccc(-c2ccccc2)cc1 was 8.15

###

assayed-target: Neutrophil collagenase (Homo sapiens)
measurement-description: Inhibition of MMP8 (unknown origin)-mediated Mca-Pro-Leu-Gly-Leu-Dpa-Ala-Arg-NH2 by fluorimetric assay
In this section we review reported Ki values for a set of molecules.
Please answer using the number first and the unit second.

- structure-smiles: "COc1ccc(CCS(=O)(=O)N2CCC[C@H]2C(=O)NO)cc1"
  Ki: "0.004 µM"
- structure-smiles: "O=C(CNS(=O)(=O)c1ccc(-c2ccccc2)cc1)NO"
  Ki: "0.009 µM"

Per the record, O=C(CNS(=O)(=O)c1ccccc1)NO has Ki of 0.24 µM

###

Ki values, listed per item
assayed-target: Neutrophil collagenase (Homo sapiens, UniProt P22894)
measurement-description: Inhibition of MMP8 (unknown origin)-mediated Mca-Pro-Leu-Gly-Leu-Dpa-Ala-Arg-NH2 by fluorimetric assay
Write the value in nM as a bare number.

Known results for molecules:
- structure-smiles: "O=C(CNS(=O)(=O)CCc1ccc(Oc2ccccc2)cc1)NO"
  assayed-target: "Neutrophil collagenase (Homo sapiens, UniProt P22894)"
  quantity-measured: "Ki"
  value: 32
- structure-smiles: "O=C(O)CNS(=O)(=O)CCc1ccc(Cl)s1"
  assayed-target: "Neutrophil collagenase (Homo sapiens, UniProt P22894)"
  quantity-measured: "Ki"
  value: 364

For O=C(CNS(=O)(=O)CCc1ccc(Cl)s1)NO on Neutrophil collagenase (Homo sapiens, UniProt P22894), measured Ki was 37
